# Target System: HLA-DRB1*01:01 (Homo sapiens, UniProt P01903+P01911, A100R/D57E/F55L/F60I/F76Y/I96L/L162R/M171V/P40L/Q125E/R42F/V115G/Y59C)
# Construct: EBV transformed homozygous cell lines were used as sources of MHC molecules; endogenous in cells; host or cells: EBV transformed homozygous cell lines
# Experiment Summary: HLA class II peptide binding, inhibition of radiolabeled peptide binding to purified MHC
# Experimental Setup: wild-type (unmodified Arg) 15-mer peptide; purified HLA-DRB1*01:01; read-out: DRB1*01:01 binding capacity, WT peptide (IC50 nM)
Property: IC50 (nM)
Your answer is read as nM, so omit the unit and give the number.

Take a look at these entries with their results.
| Smiles Text | Property | Reported Measurement |
| --- | --- | --- |
| CSCC[C@H](NC(=O)[C@H](CCC(=O)O)NC(=O)[C@H](CCC(=O)O)NC(=O)[C@H](CCCCN)NC(=O)[C@H](CCSC)NC(=O)[C@@H](N)CC(N)=O)C(=O)N[C@@H](C)C(=O)N[C@@H](CCCNC(=N)N)C(=O)N[C@@H](Cc1c[nH]cn1)C(=O)N[C@@H](CC(C)C)C(=O)N[C@@H](CCCNC(=N)N)C(=O)N[C@@H](CCC(=O)O)C(=O)N[C@@H](Cc1ccc(O)cc1)C(=O)N[C@@H](CCC(N)=O)C(=O)N[C@@H](CC(=O)O)C(=O)O | IC50 | 3020 |
| CC[C@H](C)[C@H](N)C(=O)N[C@@H](CO)C(=O)N[C@@H](CC(C)C)C(=O)N1CCC[C@H]1C(=O)N[C@@H](CC(C)C)C(=O)N1CCC[C@H]1C(=O)N[C@@H](CC(N)=O)C(=O)N[C@@H](Cc1ccccc1)C(=O)N[C@@H](CO)C(=O)N[C@@H](CO)C(=O)N[C@@H](CC(C)C)C(=O)N[C@@H](CC(N)=O)C(=O)N[C@@H](CC(C)C)C(=O)N[C@@H](CCCNC(=N)N)C(=O)N[C@@H](CCC(=O)O)C(=O)O | IC50 | 326 |
| CC(C)C[C@H](NC(=O)[C@H](CC(N)=O)NC(=O)[C@@H](NC(=O)[C@H](CCC(=O)O)NC(=O)[C@H](CCCNC(=N)N)NC(=O)[C@H](CC(C)C)NC(=O)[C@H](CC(N)=O)NC(=O)[C@@H](N)CC(C)C)[C@@H](C)O)C(=O)N[C@@H](CC(=O)O)C(=O)N[C@@H](CO)C(=O)N[C@@H](CC(C)C)C(=O)N1CCC[C@H]1C(=O)N[C@@H](CC(C)C)C(=O)N[C@H](C(=O)N[C@@H](CC(=O)O)C(=O)O)C(C)C | IC50 | 96 |
| CC[C@H](C)[C@H](NC(=O)[C@H](CC(=O)O)NC(=O)[C@H](CC(C)C)NC(=O)[C@H](C)NC(=O)[C@H](CCSC)NC(=O)[C@H](CCCCN)NC(=O)[C@@H](NC(=O)[C@H](CC(N)=O)NC(=O)[C@H](CC(C)C)NC(=O)[C@H](CC(C)C)NC(=O)[C@H](CC(=O)O)NC(=O)[C@H](CCC(N)=O)NC(=O)[C@H](Cc1ccc(O)cc1)NC(=O)[C@H](CCC(=O)O)NC(=O)[C@@H](N)CCCNC(=N)N)C(C)C)C(=O)O | IC50 | 192 |
| CC[C@H](C)[C@H](NC(=O)[C@H](CCCNC(=N)N)NC(=O)[C@H](CO)NC(=O)[C@H](CCC(=O)O)NC(=O)[C@H](CCC(=O)O)NC(=O)CNC(=O)[C@H](CCC(=O)O)NC(=O)[C@H](CC(C)C)NC(=O)[C@H](CC(C)C)NC(=O)[C@H](CCCCN)NC(=O)[C@@H](N)CCCNC(=N)N)C(=O)N[C@@H](CO)C(=O)N[C@@H](CC(C)C)C(=O)N1CCC[C@H]1C(=O)N[C@@H](CC(C)C)C(=O)O | IC50 | 1920 |

Switching to the query record.
INPUT: // fetch IC50 given entry CC[C@H](C)[C@H](NC(=O)CNC(=O)[C@H](CCCNC(=N)N)NC(=O)[C@H](CCC(N)=O)NC(=O)CNC(=O)[C@H](C)NC(=O)[C@H](CC(C)C)NC(=O)CNC(=O)[C@H](CCC(N)=O)NC(=O)[C@@H]1CCCN1C(=O)CNC(=O)[C@@H]1CCCN1)C(=O)N[C@H](C(=O)NCC(=O)N[C@@H](CC(C)C)C(=O)O)C(C)C
OUTPUT: 7.9
